study_system: JH2 domain of human Tyk2 (Homo sapiens (Human), UniProt P29597)
procedure_summary: JH2 Biochemical Assay (TR-FRET probe displacement)
Assay type: binding
test_context: JH2 domain of human Tyk2, TR-FRET probe displacement
readout_name: IC50

Some compounds with known IC50 results, for comparison:
• CC(=O)Nc1cc(Nc2cc(C)nc(C34CCC(C3)OC4)n2)c(-c2ccn(C)n2)cn1 (stereo not shown) [Example 557] = ≤ 10 nM
• COCCn1ncc(-c2cnc(NC(C)=O)cc2Nc2cc(OC3CC3)nc(C(C)(F)F)n2)n1 [Example 587] = ≤ 10 nM
• CC(=O)Nc1cc(Nc2cc(C)nc(C(C)(F)F)n2)c(-c2cc(N(C)C)ccn2)cn1 [Example 627] = 100 to 1000 nM

Alright, here's another compound for you.
Could you share what IC50 was measured for CC(=O)Nc1cc(Nc2cc(OC3CC3)nc(C(C)(F)F)n2)c(OC[C@H]2COCCO2)cn1 (single isomer, unassigned) [Example 454] , tested on JH2 domain of human Tyk2 (Homo sapiens (Human), UniProt P29597)?
≤ 10 nM

---

Recorded measurements of IC50, one per entry
study_system: Tyk2 (Homo sapiens (Human), UniProt P29597)
Sequence (P29597 whole entry): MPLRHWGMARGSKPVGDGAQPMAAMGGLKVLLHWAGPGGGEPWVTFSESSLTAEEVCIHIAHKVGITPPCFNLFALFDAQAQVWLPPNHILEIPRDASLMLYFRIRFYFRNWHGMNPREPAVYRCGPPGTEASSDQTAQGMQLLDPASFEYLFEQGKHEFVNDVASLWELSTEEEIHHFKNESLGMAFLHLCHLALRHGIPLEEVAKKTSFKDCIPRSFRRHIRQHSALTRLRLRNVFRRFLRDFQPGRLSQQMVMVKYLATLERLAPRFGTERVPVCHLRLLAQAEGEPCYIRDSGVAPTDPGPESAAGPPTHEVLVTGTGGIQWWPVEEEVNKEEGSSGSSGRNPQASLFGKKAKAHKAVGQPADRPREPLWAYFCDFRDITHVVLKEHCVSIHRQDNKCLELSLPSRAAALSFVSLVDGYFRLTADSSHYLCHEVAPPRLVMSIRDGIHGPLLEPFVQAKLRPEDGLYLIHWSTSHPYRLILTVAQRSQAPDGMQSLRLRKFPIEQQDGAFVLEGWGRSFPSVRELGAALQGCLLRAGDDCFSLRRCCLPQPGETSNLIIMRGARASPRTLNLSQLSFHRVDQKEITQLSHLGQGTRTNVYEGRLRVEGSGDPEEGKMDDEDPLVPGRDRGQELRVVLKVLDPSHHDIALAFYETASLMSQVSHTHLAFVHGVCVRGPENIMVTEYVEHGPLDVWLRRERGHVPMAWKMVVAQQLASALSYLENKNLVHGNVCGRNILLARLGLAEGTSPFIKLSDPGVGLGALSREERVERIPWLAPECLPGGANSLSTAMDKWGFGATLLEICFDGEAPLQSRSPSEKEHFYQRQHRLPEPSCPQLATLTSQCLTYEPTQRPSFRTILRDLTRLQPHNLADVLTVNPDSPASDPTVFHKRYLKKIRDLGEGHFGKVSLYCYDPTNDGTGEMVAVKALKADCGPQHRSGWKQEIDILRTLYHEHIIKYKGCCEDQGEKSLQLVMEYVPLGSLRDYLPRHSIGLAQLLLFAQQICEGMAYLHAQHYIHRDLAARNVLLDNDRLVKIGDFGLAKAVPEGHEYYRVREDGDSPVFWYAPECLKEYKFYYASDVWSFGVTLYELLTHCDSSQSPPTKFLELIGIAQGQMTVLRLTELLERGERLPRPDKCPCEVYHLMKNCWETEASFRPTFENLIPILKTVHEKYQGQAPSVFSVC
procedure_summary: pSTAT4 Cell Assay (MSD, NK92 cells)
Type: cell-based
test_context: MSD

Some molecules with known IC50 results, for comparison:
* CCOc1cnc(NC(C)=O)cc1Nc1nc(C(C)(F)F)nc(C)c1F [Example 35] | 100 to 1000 nM
* CC(=O)Nc1cc(Nc2cc(C)nc(C(C)(F)F)n2)c(OCc2csc(C)n2)cn1 [Example 117] | ≤ 10 nM
* CC(=O)Nc1cc(Nc2ccnc(C(C)(F)F)n2)c(OC(F)F)cn1 [Example 6] | ≥ 1000 nM
* CC(=O)Nc1cc(Nc2cc(C)nc(C(C)(F)F)n2)c(OCc2cccnc2C)cn1 [Example 469] | 100 to 1000 nM
* CCc1cc(Nc2cc(NC(C)=O)ncc2OCCOC)nc(C(C)(F)F)n1 [Example 20] | ≤ 10 nM
* COCc1ccc(-c2cnc(NC(C)=O)cc2Nc2cncc(OC(F)F)n2)nc1 [Example 588] | 10 to 100 nM

Could you share what IC50 was measured for CC(=O)Nc1cc(Nc2cc(C)nc(C(C)(F)F)n2)c(-n2ccc(C)n2)cn1 [Example 597] , tested on Tyk2 (Homo sapiens (Human), UniProt P29597)?
10 to 100 nM

Do the same for CC(=O)Nc1cc(Nc2cc(C)nc(C(C)(F)F)n2)c(-c2coc(C)n2)cn1 [Example 578] please
≤ 10 nM

Do the same for CC(=O)Nc1cc(Nc2cc(C)nc(C(C)(F)F)n2)c(OCC2CN(C(C)C)CCO2)cn1 (centres unmarked) [Example 503] please
10 to 100 nM

---

study_system: JH2 domain of human Tyk2 (Homo sapiens (Human), UniProt P29597)
procedure_summary: JH2 Biochemical Assay (TR-FRET probe displacement)
Assay type: binding
test_context: TR-FRET probe displacement, JH2 domain of human Tyk2
readout_name: IC50

Some compounds with known IC50 results, for comparison:
- CC(=O)Nc1cc(Nc2cc(C)nc(C(C)(F)F)n2)c(OCc2cnn(C)c2C)cn1: 100 to 1000 nM
- CCc1cc(Nc2cc(NC(C)=O)ncc2OCCCOC)nc(C(C)(F)F)n1: ≤ 10 nM
- CC(=O)Nc1cc(Nc2ccnc(C(C)(C)F)n2)c(-c2ccnc(C)n2)cn1: ≤ 10 nM
- CCC(F)(F)c1cnc(NC(C)=O)cc1Nc1cc(C)nc(C(C)(F)F)n1: 10 to 100 nM

Query: IC50; subject: CC(=O)Nc1cc(Nc2cc(C)nc(C(C)(F)F)n2)c(OC2COC2)cn1
≤ 10 nM

Do the same for CC(=O)Nc1cc(Nc2cc(C)nc(C(C)(F)F)n2)c(OCC(F)F)cn1 please
≤ 10 nM

Do the same for CCOc1cnc(NC(C)=O)cc1Nc1cc(-c2cnn(CCN3CCOCC3)c2)nc(C(C)(F)F)n1 please
≤ 10 nM

Do the same for CCCc1cnc(NC(C)=O)cc1Nc1cc(C)nc(C(C)(F)F)n1 please
10 to 100 nM

Data provenance is patent US20260028365A1.
